tested on: SARS-CoV-2; experiment: Antiviral activity against SARS-CoV-2 infected in African Green monkey Vero E6 cells assessed as reduction in viral plaques in presence of efflux inhibitor CP-100356 by plaque reduction assay; assay type: functional, organism-based; conditions: Severe acute respiratory syndrome coronavirus 2, Vero C1008
observable: EC50
The reply should consist of the numeric value with the unit placed after it.

Prompt: Record request: EC50 value, item COc1cc(Cl)cc2[nH]c(C(=O)N[C@@H](CC(C)(C)C)C(=O)N[C@H](C#N)C[C@@H]3CCCNC3=O)cc12
Response: 210 nM

Prompt: # iterate: COc1cccc2[nH]c(C(=O)N[C@@H](CC(C)C)C(=O)N[C@H](C#N)C[C@@H]3CCCNC3=O)cc12
Response: 230 nM

Prompt: And what about the compound CCOc1cccc2[nH]c(C(=O)N[C@@H](CC(C)C)C(=O)N[C@H](C#N)C[C@@H]3CCCNC3=O)cc12 ?
Response: 120 nM

Prompt: Thanks! And COc1cc(Cl)cc2[nH]c(C(=O)N[C@@H](CC(C)C)C(=O)N[C@H](C#N)C[C@@H]3CCCNC3=O)cc12 ?
Response: 233 nM

Prompt: Follow-up item: CC(C)C[C@H](NC(=O)c1cc2c(OC(F)(F)F)cccc2[nH]1)C(=O)N[C@H](C#N)C[C@@H]1CCCNC1=O
Response: 350 nM

====

test: Glutathione reactivity at pH 7.4 assessed as compound recovery measured after 24 hrs by LC-MS/MS method; assay type: physicochemical; details: glutathione solution, read-out: Activity
observable: remaining at 24 h

Prompt: # lookup: remaining at 24 h of COc1cccc2[nH]c(C(=O)N[C@@H](CC(C)C)C(=O)N[C@H](C#N)C[C@@H]3CCCNC3=O)cc12
Response: ≥ 90%

====

molecular target: Cathepsin S (Homo sapiens); assay: Inhibition of human cathepsin S at 1 uM relative to control
Sequence (P25774 115-331 limits assumed): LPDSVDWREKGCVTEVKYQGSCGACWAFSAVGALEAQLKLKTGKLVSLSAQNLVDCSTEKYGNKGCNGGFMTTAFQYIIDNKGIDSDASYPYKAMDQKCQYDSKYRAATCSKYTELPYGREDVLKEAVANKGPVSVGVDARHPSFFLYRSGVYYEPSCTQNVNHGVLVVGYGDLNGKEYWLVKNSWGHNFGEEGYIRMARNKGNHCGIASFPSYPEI
Quick rule for you: inhibition at 70% or higher means 1, lower means -1.

Prompt: Please indicate if the recorded inhibition for CC(C)C[C@H](NC(=O)OCc1ccccc1)C(=O)N[C@@H](C[C@@H]1CCNC1=O)C(O)S(=O)(=O)O (stereo partly drawn) meets or exceeds 70%.
Response: 1

Prompt: Try this compound next: CCOc1cccc2[nH]c(C(=O)N[C@@H](CC(C)C)C(=O)N[C@H](C#N)C[C@@H]3CCCNC3=O)cc12
Response: 1

Prompt: Okay, and CC(C)C[C@H](NC(=O)c1cc2c(OC(F)(F)F)cccc2[nH]1)C(=O)N[C@H](C#N)C[C@@H]1CCCNC1=O ?
Response: -1

Prompt: And the next one, COc1cccc2[nH]c(C(=O)N[C@@H](CC(C)C)C(=O)N[C@H](C#N)C[C@@H]3CCCNC3=O)cc12 ?
Response: 1

Prompt: Then this compound: COc1cccc2[nH]c(C(=O)N[C@@H](CC(C)C)C(=O)N[C@H](C#N)C[C@@H]3CCNC3=O)cc12
Response: 1

Prompt: Now the compound CC(C)C[C@H](NC(=O)c1cc2c3c(ccc2[nH]1)CCO3)C(=O)N[C@H](C#N)C[C@@H]1CCCNC1=O
Response: -1

Prompt: Param item: COc1cc(Cl)cc2[nH]c(C(=O)N[C@@H](CC(C)(C)C)C(=O)N[C@H](C#N)C[C@@H]3CCCNC3=O)cc12
Response: -1
